Where these numbers come from: patent US7435837B2

Target: human 5-HT2C receptor (Homo sapiens, UniProt P28335)
Sequence (P28335 33-458): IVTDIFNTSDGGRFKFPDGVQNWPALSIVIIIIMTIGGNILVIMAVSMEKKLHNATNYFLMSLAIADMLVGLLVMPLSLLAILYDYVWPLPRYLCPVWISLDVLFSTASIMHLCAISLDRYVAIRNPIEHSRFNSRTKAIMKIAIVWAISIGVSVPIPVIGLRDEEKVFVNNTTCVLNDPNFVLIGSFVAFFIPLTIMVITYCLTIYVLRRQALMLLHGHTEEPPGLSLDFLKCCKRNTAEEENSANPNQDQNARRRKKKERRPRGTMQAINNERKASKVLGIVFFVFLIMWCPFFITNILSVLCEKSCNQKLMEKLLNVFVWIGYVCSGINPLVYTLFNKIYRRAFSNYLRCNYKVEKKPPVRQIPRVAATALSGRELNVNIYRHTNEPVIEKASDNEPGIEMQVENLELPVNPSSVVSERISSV
Test: 5-HT2C receptor-stimulated calcium mobilization (FLIPR) in CHO cells;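 note: Fluo-3-AM fluorescence read on FLIPR every 1 s, agonist added after 10 baseline reads, response taken as peak minus lowest raw fluorescence count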
Format: cell-based
Settings: CHO, percentage of the response observed with a maximally effective concentration of 5-HT; read-out: 5-HT2C Function Emax (%)
Response field label takes label 1 when Emax is strictly below 80% and label 0 in all other cases.

Please review the entries below; each comes with its answer.
[[record]]
compound = "COc1cc2c(c(-c3ccccc3OC)c1)OC(CCN)C2 (racemic)"
class = "label 1"

[[record]]
compound = "CNCC1Cc2cccc(-c3ccccc3Cl)c2O1 (single isomer, unassigned; (+)) [Example 410]"
class = "label 0"

[[record]]
compound = "CNC[C@H]1Cc2cc(F)cc(-c3ccccc3Cl)c2O1"
class = "label 0"

[[record]]
compound = "COc1ccccc1-c1cccc2c1OC(CN)C2 (single isomer, unassigned; (+)) [Example 128]"
class = "label 1"

[[record]]
compound = "CNCC1Cc2cc(OC)cc(-c3cc(OC)ccc3OC)c2O1 (racemic)"
class = "label 1"


Task: Does the reported Emax of the following compound sit strictly below 80%? CC(C)NCC1Cc2cccc(-c3c(Cl)cccc3Cl)c2O1 (racemic)
Output: label 1

Task: Decide: Emax of NCC1Cc2cccc(-c3ccccc3)c2O1 (single isomer, unassigned; (+)) [Example 37] strictly below 80%?
Output: label 0

Task: is_below(Emax, 80%) for CNCC1Cc2cc(C)cc(-c3cccc(C)c3)c2O1 (racemic) ?
Output: label 1

Task: Consider NCC1Cc2cc(Cl)cc(-c3ccccc3Cl)c2O1 (racemic) . Does its Emax lie strictly below 80%?
Output: label 0

Task: Take the compound CC(C)NCC1Cc2cc(F)cc(-c3c(Cl)cccc3Cl)c2O1 (racemic) and say whether its Emax is less than 80%.
Output: label 1

Task: For this compound, is Emax lower than 80%? NCC1Cc2cccc(-c3ccccc3C(F)(F)F)c2O1 (single isomer, unassigned; (-)) [Example 54]
Output: label 0

Task: hey, is Emax for CC(C)c1ccccc1-c1cccc2c1OC(CN)C2 (single isomer, unassigned; (+)) [Example 62] lower than 80% or not?
Output: label 1

Task: Threshold test, Emax < 80%: NCC1Cc2cccc(-c3c(Cl)cccc3Cl)c2O1 (racemic) [Example 140]
Output: label 0

====

Target: human 5-HT2C receptor (Homo sapiens)
Assay: 5-HT2C receptor-stimulated calcium mobilization (FLIPR) in CHO cells
Format: cell-based
Conditions: percentage of the response observed with a maximally effective concentration of 5-HT
Each entry gets f if its 5-HT2C Function Emax (%) stays under 70%, and t if its 5-HT2C Function Emax (%) is 70% or above.

[[record]]
compound = "CNCC1Cc2cccc(-c3ccccc3C)c2O1 (single isomer, unassigned; (+)) [Example 408]"
class = "t"

[[record]]
compound = "NCC1Cc2cccc(-c3cccc(F)c3)c2O1 (single isomer, unassigned; (-)) [Example 132]"
class = "f"

[[record]]
compound = "NCC1Cc2cccc(C3CCCC3)c2O1 (single isomer, unassigned; (+)) [Example 10]"
class = "f"

[[record]]
compound = "NCC1Cc2cccc(C3CCCC3)c2O1 (single isomer, unassigned; (-)) [Example 9]"
class = "t"

[[record]]
compound = "CNCC1Cc2cc(F)cc(-c3cc(Cl)ccc3Cl)c2O1 (single isomer, unassigned; (-))"
class = "t"

[[record]]
compound = "NCC1Cc2cc(F)cc(-c3ccccc3C(F)(F)F)c2O1 (single isomer, unassigned; (-)) [Example 151]"
class = "t"


Task: Dear colleague, could you confirm whether CNCC1Cc2cccc(-c3ccccc3C)c2O1 (single isomer, unassigned; (-)) [Example 407] has 5-HT2C Function Emax (%) at or above 70%?
Output: f

Task: Has NCC1Cc2cc(F)cc(-c3cccnc3)c2O1 (single isomer, unassigned; (+)) a recorded 5-HT2C Function Emax (%) greater than or equal to 70%?
Output: t

Task: Record CNCC1Cc2cc(F)cc(-c3c(C)cccc3C)c2O1 (single isomer, unassigned; (-)) ; criterion: 5-HT2C Function Emax (%) no lower than 70%. Met?
Output: t
